target: HLA-A*0201 (HLA-A2.1) (Homo sapiens, UniProt P04439, D140Y/D185E/D98H/E176V/E277Q/G131W/G231S/I119V/I121R/I166T/I218V/L300P/L318F/N151K/N90K/P208A/P217A/Q86G/Q94H/R138H/R169H/T345S); test: biochemical; format: binding
readout: A2.1
Reply with the value as a number alone.

Which measured A2.1 value corresponds to "LLSRDLQQSL" ?
0.0007

So what does the record say about A2.1 for "ALGLVCVQA" ?
0.015

I would be grateful if you could share the reported A2.1 for "LLGDNQIM" .
0

For the sequence shown here, "EIFGKASESL" , give the reported A2.1.
0

Given the entry "SLHCKPEEAL" , report its measured A2.1.
0.0002

----------
molecular target: A*2902 (Homo sapiens, UniProt P04439, A270S/D101N/D185E/E176V/E277Q/E87Q/F33T/G231S/H175R/I121M/I218V/I322F/K168Q/L300P/L318F/M331R/P208A/P217A/Q86L/T323A/T345S/V100A/V358M); assay: biochemical; format: binding
No end group written: not given here.
readout: pIC50
In plain terms, pIC50 is the concentration in mol/L turned into minus its base-10 logarithm.

What does the data say about its pIC50? Entry: NSDVKHHMY [Peptide 9018.0010]
6.71

Which pIC50 value is on record for VSRRANGWFY [Peptide 9015.0179] ?
5.25

// lookup pIC50 for GTEELRSLY [Peptide 9015.0010]
5.32

Consider the sequence LSQMVQWAY [Peptide 1580.03] and give its measured pIC50.
6.91

Look up pIC50 for this sequence: ISWTYIDDY [Peptide 86.0135]
5.60

Query (sequence): VSRRAKGWFY [Peptide 9015.0178] ; field requested: pIC50
4.92

----------
molecular target: B*3501 (Homo sapiens, UniProt P01889, A329T/A93T/A95T/C349S/D201E/D98Y/E176V/E187L/E204Q/E69T/I218V/K202T/L119I/Q94N/R155S/R180L/S121R/S35A/S48A/T118I/V127L/V306I/V36M/Y140S/Y91F); experiment: biochemical
No end group written: not given here.
readout: IC50 (nM)
Give the number; nM is assumed, so skip it.

What value of IC50 has been reported for the following sequence? "IPFPSSWAF"
1.7

Suppose we examine the sequence EPIVGAETFY [15.271] ; what IC50 value has been reported?
9000

If you can, please state the reported IC50 value of EPQNEIPVDL [15.279] .
16000

Any idea what its IC50 is? The sequence is RPQVPLRPM [15.067]
5760

Recorded IC50 of "FPVRPQFPL" , please.
23

Endpoint output: IC50 of "IPIPMSWAF" . Value?
2.2

What value of IC50 has been reported for the following sequence? "LPVCSFSIF"
2.5

Field request: IC50 | item: "LPGCMFSIF"
28

----------
molecular target: DRB1*1302 (Homo sapiens, UniProt P01903+P01911, A100E/A169T/K41T/L162R/M171V/P40S/Q125H/Q178H/Q39Y/Q99D/R42S/S66N/T262R/V115G/W38E/Y61H); test: biochemical; assay type: binding
No end group written: not given here.
readout: IC50 (nM)
Field: numeric (nM). Do not append units.

Value lookup for IC50; key = LMQLKCPPLLITSNI [Peptide 89.0057]
123

Bench note: what IC50 did RYRFQKYKTLFVDVT [Peptide 90.0019] show?
2170

For the sequence TVEVQFDGDICNTMH [Peptide 90.0167] , what IC50 is on record?
39

What value of measured IC50 is listed for DICNTMHYTNWTHIY [Peptide 1601.04] ?
1040

Please report the recorded IC50 for HCTLYTAVSSTWHWT [Peptide 89.0157] .
867

Which IC50 is listed for DCKWGVLILALLRYK [Peptide 89.0026] ?
786

Would you mind telling me what IC50 value was observed for LKVLIQPYSIYAHLQ [Peptide 89.0098] ?
677

Return reported IC50; argument: HWKLIRMECAIMYTA [Peptide 90.0021]
54

Entry under review: LKSFLKGTPKKNCLV [Peptide 89.0035] . Reported IC50?
430
